The measured values listed here are drawn from ChEMBL document CHEMBL1158278.

// reported zone of inhibition at 50 µg/disc per item
test system: Bacillus subtilis; assay: Antibacterial activity against Bacillus subtilis NCTC 8326 at 50 ug/disk; assay type: functional; settings: read-out: IZ

# compound, zone of inhibition at 50 µg/disc [mm]
rows = [
    ("CCCCCCCCCC(O)CCCCCC1CC(=O)NCCCN(C)CCCCN(C)CCCN1 (stereo not given)", 9),
    ("CCCCCCCCCCCCCCCC1CC(=O)NCCCN(C)CCCCNCCCN1C (stereo not given)", 10),
    ("CCCCCCCCCCCCCCCC1CC(=O)NCCCN(C)CCCCN(C)CCCN1C (stereo not given)", 10),
    ("O=C(N[C@H](CO)[C@H](O)c1ccc([N+](=O)[O-])cc1)C(Cl)Cl", 31),
    ("CCCCCCCCCCCC1CC(=O)NCCCN(C)CCCCN(C)CCCN1C (stereo not given)", 11),
]
